Read-out: Monocyte Chemoattractant Protein-1 (MCP1), CCL2 (gene 6347)
Experiment: BSK_IMphg_MCP1: BioMAP Diversity Plus: IMphg Assay for Monocyte Chemoattractant Protein-1 (MCP1) Biomarker Activity (AID 2284253)
Conditions: primary human endothelial cells with macrophages
Activity calls are given as the source filed them. The calls were made as follows: active = hit-call score of the fitted dose curve at least 0.9, where 1 is the maximum; inactive = score below 0.9.
Outcome codes: 1 (yes) = active, 0 (no) = inactive

1. C=C(C)C(=O)OCCC(F)(F)C(F)(F)C(F)(F)C(F)(F)C(F)(F)C(F)(F)F	0 (no)
2. NCC(F)(F)C(F)(F)C(F)(F)C(F)(F)C(F)(F)C(F)(F)C(F)(F)F	0 (no)
3. OCCC(F)(F)C(F)(F)C(F)(F)C(F)(F)C(F)(F)C(F)(F)F	0 (no)
4. FC(F)(I)C(F)(F)C(F)(F)C(F)(F)C(F)(F)C(F)(F)I	1 (yes)

---

Target: rat Adrenergic Receptor, Beta (Adrb), Non-selective Binding, Adrb1 (gene 24925)
Test: NVS_GPCR_rAdrb_NonSelective: NovaScreen (NVS) G Protein-Coupled Receptor Assay for rat Adrenergic Receptor, Beta (Adrb), Non-selective Binding (AID 2283298)
Records with an inconclusive call do not appear. Calls of active or inactive are those of the source. Rule for the calls: active = hit-call score of the fitted dose curve at least 0.9, where 1 is the maximum; inconclusive = response in the unintended direction; inactive = score below 0.9.
Outcome codes: active, inactive

1. CC(C)CCCCCCOC(=O)CCCCC(=O)OCCCCCCC(C)C	inactive
2. CN1CCN(c2ccccc2/C=C2\SCCN(c3ccc(Cl)c(Cl)c3)C2=O)CC1	active
3. CCCOc1sc(C(=O)N2CCC(c3cc(CN)ccc3F)CC2)c(C)c1Br	active
4. O=c1c(-c2ccc(O)cc2)coc2cc(O)ccc12	inactive

---

Assay: CCTE_Simmons_MITO_inhib_resp_rate: CCTE's HepG2 Seahorse XF Respirometric Screening Assay at Inhibited Respiratory State [full ETC block], Simmons Lab (AID 2284006)
Details: actives raise or lower the signal
The source made the active and inactive calls. How the source made its calls: active means hit-call score of the fitted dose curve at least 0.9, where 1 is the maximum; inactive means score below 0.9.
Outcome codes: active, inactive

1) Cc1cc(CCN2CCN(c3nsc4ccccc34)CC2)cc2c1NC(=O)CC2(C)C	inactive
2) Nc1cccc2c(N)cccc12	active
3) NC(=O)N1C(=O)C(C(=O)c2cc(Cl)cs2)c2cc(F)c(Cl)cc21 (stereo not drawn)	inactive
4) OC1CCC(C2CCCCC2)CC1 (stereo not drawn)	inactive
5) Oc1cc2ccccc2c2ccccc12	active
6) NC(=O)N(O)[C@@H]1C=C[C@H](Oc2cccc(Oc3ccc(F)cc3)c2)C1	inactive
7) CN1CCN(c2ccccc2/C=C2\SCCN(c3ccc(Cl)c(Cl)c3)C2=O)CC1	inactive
8) CCCOC(=O)c1ccc(O)cc1	inactive

---

Biological target: Luciferin 4-monooxygenase (Photinus pyralis)
Assay: CCTE_Simmons_QuantiLum_inhib_2: CCTE's Firefly Luciferase Inhibition Assay, Simmons Lab (AID 2283767)
Inconclusive results are not listed. Active and inactive are the calls of the source. Rule for the calls: active = hit-call score of the fitted dose curve at least 0.9, where 1 is the maximum; inconclusive = response in the unintended direction; inactive = score below 0.9.
Outcome codes: 1.0 (active), 0.0 (inactive)

1. Nc1cccc2c(N)cccc12	1.0
2. CC(C)(C)c1ccc(O)c(C(C)(C)C)c1	0.0
3. CC#C[C@]1(O)CC[C@H]2[C@@H]3CCC4=CC(=O)CCC4=C3[C@@H](c3ccc(N(C)C)cc3)C[C@@]21C	0.0
4. O=c1c(-c2ccc(O)cc2)coc2cc(O)ccc12	1.0
5. CCCCCCCCCCCCN1CCCC1=O	1.0
6. CC[C@H](c1ccc(O)cc1)[C@@H](CC)c1ccc(O)cc1	0.0
7. Cc1cc(C)c(O)c(C)c1	0.0
8. O=C(O)c1ccccc1C(c1ccc(O)cc1)c1ccc(O)cc1	1.0
9. N#C[C@@H]1CC(F)(F)CN1C(=O)CNC1CC2CCC(C1)N2c1ncccn1 (stereo partly drawn)	0.0
10. CN1CCN(c2ccccc2/C=C2\SCCN(c3ccc(Cl)c(Cl)c3)C2=O)CC1	0.0
11. CCCCCCCCCCCCCC[N+](C)(C)C	0.0
12. Cc1oc(-c2ccccc2)nc1CCOc1ccc(C[C@H](Nc2ccccc2C(=O)c2ccccc2)C(=O)O)cc1	0.0
13. COc1ccc([N+](=O)[O-])cc1N	0.0
14. CC(C)(C)c1cc(C(C)(C)C)c(O)c(C(C)(C)C)c1	0.0
15. Oc1cccc(O)c1	1.0
16. CCCCCCCCCCCCc1ccccc1S(=O)(=O)O	0.0
17. NC(=O)N(O)[C@@H]1C=C[C@H](Oc2cccc(Oc3ccc(F)cc3)c2)C1	1.0
18. CCN(CC)CCNc1ccc(CNC=O)c2sc3ccc(OC)cc3c(=O)c12	0.0

---

Biological target: CCAAT/enhancer-binding protein beta (Homo sapiens)
Test: ATG_C_EBP_CIS: Attagene CIS-FACTORIAL HepG2 Assay for human CCAAT/Enhancer Binding Protein (C/EBP) beta (AID 2282927)
Settings: HepG2 Attagene cis-factorial transcription factor reporter; actives raise or lower the signal
Active and inactive are the calls of the source. Rule for the calls: active = hit-call score of the fitted dose curve at least 0.9, where 1 is the maximum; inactive = score below 0.9.
Outcome codes: active, inactive

1. Oc1cccc(O)c1	inactive
2. Cc1cc(CCN2CCN(c3nsc4ccccc34)CC2)cc2c1NC(=O)CC2(C)C	active
3. CC(C)CCCCCCOC(=O)CCCCC(=O)OCCCCCCC(C)C	inactive
4. CC(=O)CC(C)(C)O	inactive
5. CCCCOCCO	inactive
6. COc1cc(CCC(=O)CC(=O)CCc2ccc(O)c(OC)c2)ccc1O	inactive

---

Assay: APR_HepG2_CellCycleArrest_72hr: Apredica 72-hour HepG2 Assay for Cell Cycle Arrest (AID 2282914)
Settings: high-content imaging, actives raise or lower the signal
The source made the active and inactive calls. Rule for the calls: active = hit-call score of the fitted dose curve at least 0.9, where 1 is the maximum; inactive = score below 0.9.
Outcome codes: T = active, F = inactive

1) O=C(OCCOCCOC(=O)c1ccccc1)c1ccccc1	F
2) CCCCCCCCCCCCCCCS(=O)(=O)Oc1ccccc1	F
3) Cc1cc(C)c(O)c(C)c1	F
4) OCCC(F)(F)C(F)(F)C(F)(F)C(F)(F)C(F)(F)C(F)(F)C(F)(F)C(F)(F)F	T
5) CCCCCCC(=O)O	F
6) OCCC(F)(F)C(F)(F)C(F)(F)C(F)(F)C(F)(F)C(F)(F)F	F
7) CC(C)(C)c1cccc(C(C)(C)C)c1O	T

---

Target: Estrogen receptor (Homo sapiens) (UniProt P03372)
Sequence (P03372 whole entry, looked up): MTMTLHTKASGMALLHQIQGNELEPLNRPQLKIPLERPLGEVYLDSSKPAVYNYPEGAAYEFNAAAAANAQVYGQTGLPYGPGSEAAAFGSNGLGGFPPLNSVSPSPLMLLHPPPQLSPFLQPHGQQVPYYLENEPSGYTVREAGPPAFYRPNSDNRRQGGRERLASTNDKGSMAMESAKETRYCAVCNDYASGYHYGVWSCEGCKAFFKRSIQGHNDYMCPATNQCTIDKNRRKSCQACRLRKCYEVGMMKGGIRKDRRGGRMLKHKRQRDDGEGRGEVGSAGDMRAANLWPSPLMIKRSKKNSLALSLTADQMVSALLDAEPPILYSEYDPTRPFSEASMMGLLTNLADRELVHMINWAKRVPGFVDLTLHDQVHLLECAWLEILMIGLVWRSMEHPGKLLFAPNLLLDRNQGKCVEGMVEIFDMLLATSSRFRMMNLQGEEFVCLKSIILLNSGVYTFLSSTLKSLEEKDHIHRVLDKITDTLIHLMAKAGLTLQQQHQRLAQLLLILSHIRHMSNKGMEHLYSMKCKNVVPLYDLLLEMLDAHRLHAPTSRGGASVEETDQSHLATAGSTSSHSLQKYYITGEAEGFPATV
Assay: CCTE_Deisenroth_AIME_384WELL_LUC_Shift: CCTE's 384-well Estrogen Receptor Transactivation Assay with AIME metabolic competence data shift (ERTA luciferase; difference in metabolism positive and negative), Deisenroth Lab (AID 2284041);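 also: shift is response with S9 minus without S9 so positive means metabolism raised ER signal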
The source made the active and inactive calls. How the source made its calls: active means hit-call score of the fitted dose curve at least 0.9, where 1 is the maximum; inactive means score below 0.9.
Outcome codes: YES = active, NO = inactive

1. O=C(O)c1ccccc1C(c1ccc(O)cc1)c1ccc(O)cc1	YES
2. CN1CCC[C@H]1c1cccnc1	NO
3. CCCCCCC(=O)O	NO
4. OCCC(F)(F)C(F)(F)C(F)(F)C(F)(F)C(F)(F)C(F)(F)C(F)(F)C(F)(F)F	NO
5. CCN(CC)CCNc1ccc(CNC=O)c2sc3ccc(OC)cc3c(=O)c12	YES
6. CC#C[C@]1(O)CC[C@H]2[C@@H]3CCC4=CC(=O)CCC4=C3[C@@H](c3ccc(N(C)C)cc3)C[C@@]21C	NO
7. CCCCC(CC)COC(=O)CCCCC(=O)OCc1ccccc1 (stereo not given)	NO
8. ClC1=C(Cl)C(Cl)(Cl)C(Cl)=C1Cl	NO
9. CC(C)(C)c1ccc(O)c(C(C)(C)C)c1	YES
10. CCCCCCCCCCCCN1CCCC1=O	NO

---

Read-out: adenosine kinase (ADK) gene, ADK (gene 132)
Experiment: LTEA_HepaRG_ADK: Life Technologies and Expression Analysis (LTEA) Assay for adenosine kinase (ADK) gene using HepaRG (AID 2283471)
Conditions: mRNA level, 48 h; actives raise or lower the signal
Active and inactive are the calls of the source. The calls were made as follows: active = hit-call score of the fitted dose curve at least 0.9, where 1 is the maximum; inactive = score below 0.9.
Outcome codes: active, inactive

1. Cc1cc(CCN2CCN(c3nsc4ccccc34)CC2)cc2c1NC(=O)CC2(C)C	inactive
2. C#C[C@]1(O)CC[C@H]2[C@@H]3CCC4=CC(=O)CC[C@@H]4[C@H]3CC[C@@]21C	active
3. CCc1nn(C2CCCCC2)c2cc(C3(C#N)CCC(C(=O)O)CC3)ccc12 (stereo not drawn)	inactive
4. OC1CCCCC1	inactive
5. O=[N+]([O-])c1ccc(O)cc1	inactive
6. CC(C)(C)c1cc(C(C)(C)C)c(O)c(C(C)(C)C)c1	inactive
7. O=C(O)Cc1cc(I)c(Oc2cc(I)c(O)c(I)c2)c(I)c1	active
8. N#C[C@@H]1CC(F)(F)CN1C(=O)CNC1CC2CCC(C1)N2c1ncccn1 (stereo partly drawn)	inactive
9. CCCCCCCCCCCCCCCS(=O)(=O)Oc1ccccc1	inactive
10. CC(C)CCCCCCOC(=O)CCCCC(=O)OCCCCCCC(C)C	inactive
11. OCCC(F)(F)C(F)(F)C(F)(F)C(F)(F)C(F)(F)C(F)(F)C(F)(F)C(F)(F)F	inactive
12. CC(=O)NC1(c2cccc(F)c2)CCN(CC[C@@]2(c3ccc(Cl)c(Cl)c3)CN(c3ccccc3)C(=O)CO2)CC1	inactive
13. ClC1=C(Cl)C(Cl)(Cl)C(Cl)=C1Cl	inactive

// data source = PubChem BioAssay (EPA / NIEHS)
